# pIC50 listing for each entry below
# measured on: Human immunodeficiency virus type 1 integrase (Human immunodeficiency virus 1, UniProt Q7ZJM1)
# Sequence (Q7ZJM1 whole entry): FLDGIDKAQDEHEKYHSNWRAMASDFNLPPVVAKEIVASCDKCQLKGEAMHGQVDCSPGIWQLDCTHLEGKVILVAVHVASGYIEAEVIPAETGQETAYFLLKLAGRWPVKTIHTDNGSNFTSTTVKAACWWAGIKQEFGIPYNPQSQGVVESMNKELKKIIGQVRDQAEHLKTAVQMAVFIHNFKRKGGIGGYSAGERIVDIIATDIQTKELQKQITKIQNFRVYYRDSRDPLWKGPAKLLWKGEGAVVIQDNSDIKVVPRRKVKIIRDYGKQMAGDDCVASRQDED
# assay summary: Inhibition of HIV1 integrase strand transfer activity in presence of magnesium
Interpret pIC50 as the negative base-10 log of the concentration measured in mol/L.

O=C1c2c(ccc(O)c2O)CN1Cc1cc(Cl)c(F)cc1F 5.36
O=C1c2c(ccc(O)c2O)CN1Cc1ccc(F)c(Br)c1 6.00

Proceed to the following item.
Can you share its pIC50? I mean this compound: O=C1c2c(ccc(O)c2O)CN1Cc1cccc(Br)c1
5.52

* * *

# measured on: Human immunodeficiency virus type 1 integrase (Human immunodeficiency virus 1)
# assay summary: Inhibition of HIV1 integrase strand transfer activity in presence of magnesium
pIC50: −log10 of the molar value.
Please mark T if the recorded pIC50 is equal to or greater than 6, and F if it falls below.

These recorded examples may help you get a feel for the data.
O=C1c2ccc(O)c(O)c2C(=O)N1Cc1ccccc1F F
O=C1c2c(ccc(O)c2O)CN1Cc1c(F)ccc(F)c1F F

Does the molecule O=C1c2ccc(O)c(O)c2C(=O)N1Cc1cc(F)c(F)c(F)c1 have recorded pIC50 that is 6 or more?
T

Would you say O=C1c2ccc(O)c(O)c2C(=O)N1Cc1cc(F)ccc1F shows pIC50 at minimum 6?
T

Would you say O=C1c2c(ccc(O)c2O)CN1Cc1cccc(Cl)c1 shows pIC50 at minimum 6?
F
